- Protocol Summary: Cmax in female CD-1 mouse at 5 mg/kg, po measured for 480 mins by LC-MS/MS analysis
- Type: ADME, organism-based
- Design: dose 5 mg/kg, time 480 min, route po
- Condition Context: in vivo
Reported Endpoint: Cmax (nM)
Report only the number, with the unit nM understood.

Task: For C#C[C@H](O)C#Cc1ccc(CCCCCCCC)cc1 , what is its reported Cmax?
Result: 200

* * *

- Protocol Summary: Tmax in male CD-1 mouse at 5 mg/kg, po measured for 480 mins by LC-MS/MS analysis
- Format: ADME, organism-based
- Condition Context: in vivo
Reported Endpoint: Tmax (min)
Numeric answer only, unit min assumed.

Task: Tell me the measured Tmax of C#C[C@H](O)C#Cc1ccc(CCCCCCCC)cc1 , please.
Result: 15
